Measured viability values are reported for all entries that follow.
protocol_text: reversal of MRP1-mediated doxorubicin resistance, pilot screen, H69AR cells, doxorubicin co-treatment (AID 601)
conditions: H69AR cells, CellTiter-Glo, 72 h; compound alone cytotoxicity; at 10 µM
outcome_measure: viability (%)

CC(C)OC(=O)c1cccc(C(=O)O)n1    96
COCC(=O)N(Cc1ccccc1)c1ccccn1    90.1
Cc1c(NC(=O)c2cnn3c2NC(c2ccco2)CC3C(F)(F)F)c(=O)n(-c2ccccc2)n1C (centres undefined)    103
Cc1ccc2nc(SC(C)C(=O)N3CCCC3)[nH]c2c1 (centres undefined)    97.6
O=C(O)CCc1cc(I)c(Oc2ccc(O)c(I)c2)c(I)c1    102
CC1CNCCN1S(=O)(=O)c1cccc2cnccc12 (centres undefined)    102
COCCNC(=O)CN1CCC(NC(=O)Nc2ccc(C(F)(F)F)cc2)CC1    102
CCOC(=O)c1sc(NC(=O)CSc2ncn(-c3ccccc3)n2)nc1C    82.9
Oc1c(I)cc(I)c2cccnc12    84.6
CCCn1cc(C(CC(=O)O)C(=O)O)c2ccccc21 (centres undefined)    89.1
CCCn1c(SCC(=O)Nc2nnc(-c3ccccc3)s2)nnc1-c1ccccn1    102
C/C(N)=C(/C#N)C(=O)COC(=O)c1cc(S(=O)(=O)N2CCCCC2)ccc1C    95.8
CCCCOc1ccccc1NC(=O)c1ccco1    62.9
CCOc1ccc(N(CC(=O)NCC2CCCO2)S(=O)(=O)c2ccc(OC)c(OC)c2)cc1 (centres undefined)    116
CCOC(=O)CSc1nnc2n1C(C)(C)Cc1ccccc1-2    101
CC1CCN(C(=O)c2ccc(C(=O)N3CCC(C)CC3)cc2)CC1    101
O=C(CC(=O)c1cc(Cl)ccc1O)c1ccccc1    11.4
Cc1cccc(NCc2ccccc2O)c1    94.6
CC(NC(=O)NC12CC3CC(CC(C3)C1)C2)C1CCCO1 (centres undefined)    103
CCn1c(SCC(=O)N2c3ccccc3CCc3ccccc32)nc2c1c(=O)n(C)c(=O)n2C    94.3
CCNc1oc(COc2cccc(C)c2)nc1C#N    90.9
CC(=O)c1ccc(NC(=O)c2cc(CC(C)C)on2)cc1    89.2
Cc1occc1-c1nc(-c2ccncc2)no1    95.4
Cc1cc(C(F)(F)F)c2c(C)nn(CCc3nn[nH]n3)c2n1    96.1
